tested-system: human sGC (Homo sapiens, UniProt Q02153)
Construct: expressed in transfected cells; host or cells: CHO-K1 (Chinese hamster ovary) cells
Sequence (Q02153 1-619): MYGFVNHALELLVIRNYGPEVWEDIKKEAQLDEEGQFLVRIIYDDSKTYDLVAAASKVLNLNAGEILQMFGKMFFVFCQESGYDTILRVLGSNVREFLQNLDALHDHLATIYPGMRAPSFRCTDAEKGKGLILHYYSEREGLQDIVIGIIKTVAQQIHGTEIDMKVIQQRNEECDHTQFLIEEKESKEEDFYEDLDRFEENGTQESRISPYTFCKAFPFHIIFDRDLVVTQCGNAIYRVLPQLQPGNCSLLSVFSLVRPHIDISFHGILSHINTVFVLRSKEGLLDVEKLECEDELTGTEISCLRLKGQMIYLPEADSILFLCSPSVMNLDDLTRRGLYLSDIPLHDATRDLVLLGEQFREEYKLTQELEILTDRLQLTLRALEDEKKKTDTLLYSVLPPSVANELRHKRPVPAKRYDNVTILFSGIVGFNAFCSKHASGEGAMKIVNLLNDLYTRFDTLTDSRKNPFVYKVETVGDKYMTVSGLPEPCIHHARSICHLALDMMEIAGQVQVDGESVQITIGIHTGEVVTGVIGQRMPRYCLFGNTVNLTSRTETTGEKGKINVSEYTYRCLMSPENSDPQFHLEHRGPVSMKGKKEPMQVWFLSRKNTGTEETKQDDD
Sequence (Q02108 1-690 partner): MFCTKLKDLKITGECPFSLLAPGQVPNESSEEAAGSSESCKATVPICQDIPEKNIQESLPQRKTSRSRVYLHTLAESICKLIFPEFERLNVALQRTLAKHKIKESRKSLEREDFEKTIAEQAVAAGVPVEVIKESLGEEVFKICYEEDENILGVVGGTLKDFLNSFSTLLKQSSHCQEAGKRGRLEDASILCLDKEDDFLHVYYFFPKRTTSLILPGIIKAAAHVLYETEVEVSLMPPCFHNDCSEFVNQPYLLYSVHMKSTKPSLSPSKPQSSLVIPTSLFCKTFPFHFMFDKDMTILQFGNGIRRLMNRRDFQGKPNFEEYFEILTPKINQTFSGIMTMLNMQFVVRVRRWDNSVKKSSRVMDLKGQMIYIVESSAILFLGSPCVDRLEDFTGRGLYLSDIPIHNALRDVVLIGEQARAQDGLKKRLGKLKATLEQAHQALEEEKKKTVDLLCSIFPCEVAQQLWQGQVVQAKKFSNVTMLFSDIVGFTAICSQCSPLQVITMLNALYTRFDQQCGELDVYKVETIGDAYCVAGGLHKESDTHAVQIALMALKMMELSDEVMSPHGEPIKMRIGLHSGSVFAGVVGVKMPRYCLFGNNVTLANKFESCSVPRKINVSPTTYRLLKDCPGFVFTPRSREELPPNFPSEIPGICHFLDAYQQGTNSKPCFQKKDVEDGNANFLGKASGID
experiment-description: Maximum effect of sGC activation (intracellular Ca2+, Fura2-AM) in CHO-K1 cells stably expressing human sGC and mouse CNGA2
Format: cell-based
test-settings: increase rate of sGC activity vs DMSO control, test compound 10 μmol/L, absence of ODQ, read-out: Emax (%) ODQ− (Heme-dependent)
Text: For the assay, chinese hamster ovary cells (CHO-K1 cells) stably expressing both α and β subunits of human sGC and mouse cyclic nucleotide-gated channel (CNGA2) were used. […] If sGC is activated in this assay, intracellular cGMP concentration increases and accordingly intracellular Ca^2+ concentration is increased by opening of CNGA2. Accordingly, sGC activation can be measured as the change of Ca^2+ concentration in the cell. […]
property-label: Emax at 10 µM
Answer as a quantity: numeral, then unit.

Examples with answers:
O=C(O)CCCCN(Cc1ccc(C(=O)O)cc1)CC(OCc1ccc(CCc2ccccc2)cc1)c1ccccc1 (stereo not drawn) ... 130%
O=C(O)CCCCN(Cc1ccc(C(=O)O)cc1)C[C@H](OCc1ccc(CCc2ccc(Cl)cc2)cc1)c1ccccc1 ... 127%
O=C(O)CCCCN(Cc1ccc(C(=O)O)cc1)C[C@H](OCc1ccc(CCc2ccccc2)cc1)c1ccccc1 ... 128%
O=C(O)CCCCN(Cc1ccc(C(=O)O)cc1)C[C@H](OCc1ccc(CCc2ccccc2)cc1)c1cccc(Cl)c1 ... 98.2%
O=C(O)CCCCN(Cc1ccc(C(=O)O)cc1)CC(OCc1ccc(CCc2ccccc2)cc1)c1ccsc1 (stereo not drawn) ... 92.6%

Form field Emax at 10 µM for item O=C(O)CCCCN(Cc1ccc(C(=O)O)cc1)C[C@H](OCc1ccc(CCc2ccccc2)s1)c1ccccc1 on human sGC (Homo sapiens, UniProt Q02153): 108%

Bench note, human sGC (Homo sapiens, UniProt Q02153): entry Cc1cccc(C(CN(CCCCC(=O)O)Cc2ccc(C(=O)O)cc2)OCc2ccc(CCc3ccccc3)cc2)c1 (stereo not drawn) , its Emax at 10 µM = 132%

Field Emax at 10 µM (human sGC (Homo sapiens, UniProt Q02153)), entry O=C(O)CCCCCN(Cc1ccc(C(=O)O)cc1)CC(OCc1ccc(CCc2ccccc2)cc1)c1ccccc1 (stereo not drawn) : 89.1%

The observed Emax at 10 µM for Cc1ccc(C(CN(CCCCC(=O)O)Cc2ccc(C(=O)O)c(F)c2)OCc2ccc(CCc3ccccc3)cc2)s1 (stereo not drawn) when tested with human sGC (Homo sapiens, UniProt Q02153) stands at 98%
